tested on: HAP1 MTAP-intact cell line; assay: SDMA in-cell western assay, HAP1 MTAP-intact; details: Homo sapiens, HAP1, read-out: Hap1 MTAP intact IC50, SDMA in-cell western, HAP1 MTAP-intact cell line
pIC50: −log10 of the molar value.
List of pIC50 values.

In the examples that follow, each entry is paired with its recorded pIC50.
pIC50 reported for this molecule C[C@H]1CC[C@H](c2cccc(N3CCN(C)CC3)c2)N(C(=O)C(=O)Nc2cnc(N)c3cn[nH]c23)C1 [Compound 25] : 7.30 to 8.30

pIC50 reported for this molecule C[C@H]1CC[C@H](c2ccc(F)c(Cl)c2)N(C(=O)C(=O)Nc2cnc(N)c3cn[nH]c23)C1 (racemic) [Compound 184] : < 7.30

pIC50 reported for this molecule C[C@H]1CC[C@H](c2ccc3sc([C@H](C)CN(C)C)nc3c2)N(C(=O)C(=O)Nc2cncc3c(N)nccc23)C1 (relative stereo) [Compound 99] : < 7.30

Others:
pIC50 reported for this molecule C[C@H]1CC[C@H](c2ccc3sc([C@@H]4CCN(C)C4)nc3c2)N(C(=O)C(=O)Nc2cncc3cn[nH]c23)C1 (single isomer, unassigned) [Compound 2] : 7.30 to 8.30

pIC50 reported for this molecule Cc1nc2cc([C@H]3CC[C@H](C)CN3C(=O)C(=O)Nc3cnc(N)c4cn[nH]c34)ccc2s1 [Compound 181] : 7.30 to 8.30

pIC50 reported for this molecule C[C@H]1CC[C@H](c2ccc3sc([C@H]4CCN(C)C4)nc3c2)N(C(=O)C(=O)Nc2cncc3cn[nH]c23)C1 (single isomer, unassigned) [Compound 30] : 7.30 to 8.30

pIC50 reported for this molecule C[C@H]1CC[C@H](c2ccc3sc(CCN(C)C)nc3c2)N(C(=O)C(=O)Nc2ccn3ccnc3c2)C1 (single isomer, unassigned) [Compound 16] : < 7.30

pIC50 reported for this molecule C[C@H]1CC[C@H](c2ccc3sc(CC(C)(C)N(C)C)nc3c2)N(C(=O)C(=O)Nc2cncc3cn[nH]c23)C1 [Compound 122] : < 7.30

pIC50 reported for this molecule Nc1ncc(NC(=O)C(=O)N2CCCC[C@@H]2C2CCCC2)c2[nH]ncc12 (stereo in doubt) [Compound 127] : < 7.30

pIC50 reported for this molecule C[C@H]1CC[C@H](c2ccc3sc([C@H]4CCN(C)C[C@H]4C)nc3c2)N(C(=O)C(=O)Nc2ccn3ccnc3c2)C1 (relative stereo) [Compound 58] : < 7.30

pIC50 reported for this molecule C[C@H]1CC[C@H](c2ccc(OC3CCN(C)CC3)cc2)N(C(=O)C(=O)Nc2cnc(N)c3cn[nH]c23)C1 [Compound 175] : < 7.30

pIC50 reported for this molecule C[C@H]1CC[C@H](c2ccc3sc(CC4(C)CCN(C)CC4)nc3c2)N(C(=O)C(=O)Nc2cncc3cn[nH]c23)C1 [Compound 142] : 7.30 to 8.30

pIC50 reported for this molecule CC(CN(C)C)c1nc2cc([C@H]3CC[C@H](C)CN3C(=O)C(=O)Nc3cncc4cn[nH]c34)ccc2s1 (some centres unmarked) [Compound 21] : 7.30 to 8.30

pIC50 reported for this molecule C[C@H]1CC[C@H](c2ccc(F)c(F)c2)N(C(=O)C(=O)Nc2cnc(N)c3cn[nH]c23)C1 [Compound 151] : < 7.30

###

test system: MTAP-deleted cell line; assay: viability assay for the MTAP-deleted cell line; assay type: cell-based; conditions: Homo sapiens, HAP1, viability assay
endpoint_name: IC50

In the examples that follow, each entry is paired with its recorded IC50.
The value of IC50 recorded for C[C@H]1CC[C@H](c2ccc3sc(C4CCC(N(C)C)CC4)nc3c2)N(C(=O)C(=O)Nc2cnc(N)c3cn[nH]c23)C1 (mixture of isomers) when tested on MTAP-deleted cell line reads < 100 nM

The value of IC50 recorded for C[C@H]1CC[C@H](C2CCCCO2)N(C(=O)C(=O)Nc2cnc(N)c3cn[nH]c23)C1 (single isomer, unassigned) when tested on MTAP-deleted cell line reads < 100 nM

Please look at the following molecule next.
The value of IC50 recorded for C[C@H]1CC[C@H](c2ccc3sc(CCN4CCCC4)nc3c2)N(C(=O)C(=O)Nc2cncc3[nH]ncc23)C1 when tested on MTAP-deleted cell line reads < 100 nM

###

system: HAP1 MTAP-deleted cell line; assay: SDMA in-cell western assay, HAP1 MTAP-deleted; conditions: Homo sapiens, HAP1, read-out: Hap1 MTAP deleted IC50, SDMA in-cell western assay, HAP1 MTAP-deleted cell line
List of IC50 values.

In the examples that follow, each entry is paired with its recorded IC50.
IC50 reported for this compound C[C@@H]1CC[C@H](c2ccnn2C)N(C(=O)C(=O)Nc2cnc(N)c3cn[nH]c23)C1 (stereo in doubt) [Compound 272] : 5 to 50 nM

IC50 reported for this compound C[C@H]1CC[C@H](C2CCCCO2)N(C(=O)C(=O)Nc2cnc(N)c3cn[nH]c23)C1 (single isomer, unassigned) [Compound 232] : < 5 nM

IC50 reported for this compound C[C@H]1CC[C@H](C2(C(F)(F)F)CC2)N(C(=O)C(=O)Nc2cnc(N)c3cn[nH]c23)C1 (racemic) [Compound 226] : 5 to 50 nM

IC50 reported for this compound C[C@@H]1CN(C(=O)C(=O)Nc2cnc(N)c3cn[nH]c23)[C@@H](c2ccccc2)CC1(F)F (racemic) [Compound 216] : < 5 nM

IC50 reported for this compound C[C@H]1CC[C@H](c2ccc3cc(Cl)cnc3c2)N(C(=O)C(=O)Nc2cnc(N)c3cn[nH]c23)C1 (racemic) [Compound 264] : < 5 nM

IC50 reported for this compound CN(C)c1cccc(C2CCCCN2C(=O)C(=O)Nc2cnc(N)c3cn[nH]c23)c1 (single isomer, unassigned) [Compound 256] : 5 to 50 nM

IC50 reported for this compound Nc1ncc(NC(=O)C(=O)N2[C@@H](c3ccccc3)CCC[C@H]2C(F)(F)F)c2[nH]ncc12 (racemic) [Compound 245] : < 5 nM

IC50 reported for this compound [2H]c1c([2H])c([2H])c([C@@H]2CC[C@H](C)CN2C(=O)C(=O)Nc2cnc(N)c3cn[nH]c23)c([2H])c1[2H] (single isomer, unassigned) [Compound 286] : 5 to 50 nM

IC50 reported for this compound C[C@H]1CC[C@H]([C@@H]2CCOC2)N(C(=O)C(=O)Nc2cnc(N)c3cn[nH]c23)C1 (single isomer, unassigned) [Compound 237] : < 5 nM

IC50 reported for this compound C[C@H]1CC[C@H](c2ccc3sc(C4CCC(N(C)C)CC4)nc3c2)N(C(=O)C(=O)Nc2cnc(N)c3cn[nH]c23)C1 (mixture of isomers) [Compound 212] : < 5 nM

Others:
IC50 reported for this compound COc1cc([C@H]2CC[C@H](C)CN2C(=O)C(=O)Nc2cnc(N)c3cn[nH]c23)cc(C)n1 [Compound 219] : < 5 nM

IC50 reported for this compound CC[C@@H]1CC[C@@H](CC)N(C(=O)C(=O)Nc2cnc(N)c3cn[nH]c23)C1 (racemic) [Compound 233] : < 5 nM

IC50 reported for this compound C[C@H]1CC[C@H](c2ccccc2)N(C(=O)C(=O)Nc2cnc(N)c3c2OCC3)C1 [Compound 214] : 5 to 50 nM

###

system: HAP1 MTAP-deleted cell line; test: SDMA in-cell western assay, HAP1 MTAP-deleted; conditions: Homo sapiens, HAP1, read-out: Hap1 MTAP deleted IC90, SDMA in-cell western assay, HAP1 MTAP-deleted cell line
endpoint_name: IC90

In the examples that follow, each entry is paired with its recorded IC90.
IC90 reported for this molecule C[C@H]1CC[C@H](C2(C(F)(F)F)CC2)N(C(=O)C(=O)Nc2cnc(N)c3cn[nH]c23)C1 (racemic) : > 125 nM

IC90 reported for this molecule C[C@@H]1CCC[C@H](c2ccccc2)N1C(=O)C(=O)Nc1cnc(N)c2cn[nH]c12 (racemic) : < 75 nM

IC90 reported for this molecule CC[C@@H]1CC[C@@H](CC)N(C(=O)C(=O)Nc2cnc(N)c3cn[nH]c23)C1 (racemic) : < 75 nM

IC90 reported for this molecule COc1ncc([C@H]2CC[C@H](C)CN2C(=O)C(=O)Nc2cnc(N)c3cn[nH]c23)cc1C (racemic) : < 75 nM

IC90 reported for this molecule CC(C)n1cc2cc([C@H]3CC[C@H](C)CN3C(=O)C(=O)Nc3cnc(N)c4cn[nH]c34)ccc2n1 (racemic) : < 75 nM

Others:
IC90 reported for this molecule CN(C)c1cccc(C2CCCCN2C(=O)C(=O)Nc2cnc(N)c3cn[nH]c23)c1 (single isomer, unassigned) : > 125 nM

IC90 reported for this molecule [2H]c1c([2H])c([2H])c([C@@H]2CC[C@H](C)CN2C(=O)C(=O)Nc2cnc(N)c3cn[nH]c23)c([2H])c1[2H] (single isomer, unassigned) : > 125 nM
